# SUBJECT OF TEST: recombinant human SGK-1 enzyme (Homo sapiens)
# Sequence (O00141 whole entry, looked up): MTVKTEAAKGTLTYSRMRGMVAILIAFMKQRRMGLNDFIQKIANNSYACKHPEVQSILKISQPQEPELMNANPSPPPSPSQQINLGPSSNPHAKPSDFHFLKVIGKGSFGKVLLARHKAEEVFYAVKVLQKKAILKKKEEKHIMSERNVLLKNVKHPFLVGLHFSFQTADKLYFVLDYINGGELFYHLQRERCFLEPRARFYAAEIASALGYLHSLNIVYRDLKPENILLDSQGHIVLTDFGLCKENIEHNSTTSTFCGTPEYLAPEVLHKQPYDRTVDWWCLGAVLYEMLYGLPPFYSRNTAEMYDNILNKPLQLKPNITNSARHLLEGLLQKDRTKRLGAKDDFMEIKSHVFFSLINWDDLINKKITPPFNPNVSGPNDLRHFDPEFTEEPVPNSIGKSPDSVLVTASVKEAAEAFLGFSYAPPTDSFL
# PROTOCOL NOTES: Enzymatic activity assay: SGK-1 substrate peptide phosphorylation (Caliper lab-chip mobility shift)
# Type: biochemical
# CONDITION LABEL: peptide substrate 1 μM, ATP 10 μM, 60 min at 37° C., read-out: IC50 values for inhibition of SGK-1 enzymatic activity
pIC50 for assorted compounds
Entry type: numeric. Quantity: pIC50, the -log10 of concentration in molar units.

>  <COMPOUND>
Cc1ccc(F)c(S(=O)(=O)Nc2ccc(-c3nc(OC4CCCNC4)c4c(C)n[nH]c4n3)cc2)c1 (stereo not drawn)

>  <pIC50>
8.80

$$$$
>  <COMPOUND>
Cc1n[nH]c2nc(-c3ccc(NS(=O)(=O)c4cc(Cl)ccc4Cl)c(F)c3)ncc12

>  <pIC50>
8.74

$$$$
>  <COMPOUND>
COc1ccc(F)c(S(=O)(=O)Nc2ccc(-c3nc(OC4CCN(C(C)C)CC4)c4c(C)n[nH]c4n3)cc2)c1

>  <pIC50>
8.44

$$$$

So for COCCc1nc(-c2ccc(NS(=O)(=O)c3cc(C)ccc3F)cc2)nc2[nH]nc(N)c12 , the logged pIC50 turned out to be 7.54
